- System: COLO 205 colon
- experimental_details: NCI-60 one-dose screen, 48 h
- test_settings: 10 µM
The panel holds about 83,000 compounds, 20% with a hit somewhere; the sample as a whole holds those more often. Active and inactive are the calls of the source. The calls were made as follows: active = growth percent below 10; inactive = the rest.
Mark one answer only. Choices: true (1) for active, false (0) for inactive

## Task Which result was noted for this compound in the test: O=S(=O)(O)c1ccc(-c2ccc([As](=O)(O)O)cc2)cc1
## Result false (0)

## Task Could you check what this test reported for CO[C@@H]1[C@H](OC(=O)NC(=O)CCl)CC[C@]2(CO2)[C@H]1[C@@]1(C)O[C@@H]1CC=C(C)C ?
## Result false (0)

## Task Which outcome was entered for the compound CC(=O)[O][Hg][c]1nc2c(c(=O)n(C)c(=O)n2C)n1C in this test?
## Result false (0)

## Task Field: outcome | Entry: Nc1c(Br)cc([N+](=O)[O-])cc1[N+](=O)[O-]
## Result false (0)

## Task State the result this test recorded for NS(=O)(=O)c1nc[nH]c1[N+](=O)[O-] .
## Result false (0)

## Task Outcome? O=C(c1cccs1)C1NO[N+]([O-])=C1c1cccs1 (configuration not stated)
## Result true (1)

## Task // return assay outcome for N#CC1c2ccccc2C=CN1C(=O)c1ccc(N(CCCl)CCCl)cc1 (configuration not stated)
## Result false (0)

## Task // param item: N#C[Se]CCCNS(=O)(=O)C1CC2C=CC1C2 (configuration not stated) ; yields the recorded call
## Result true (1)

## Task Short answer needed: outcome of this test for O=[N+]([O-])c1ccccc1N1CCNCC1 ?
## Result false (0)

## Task State the result this test recorded for NC(=O)C(Cl)Cl .
## Result false (0)

## Task Recorded call for CCN1CC2(CN(CC)C1=S)C(=O)NC(=O)NC2=O ?
## Result false (0)

## Task Recorded call for CCC(CO)NC1CCCCC1 (configuration not stated) ?
## Result false (0)
